Target: COX-2 (Mus musculus)
Construct: lipopolysaccharide (LPS, 10 μg/mL) to induce COX-2; endogenous in cells; host or cells: J774 murine monocyte/macrophage cell line, LPS-stimulated
Sequence (Q05769 18-604): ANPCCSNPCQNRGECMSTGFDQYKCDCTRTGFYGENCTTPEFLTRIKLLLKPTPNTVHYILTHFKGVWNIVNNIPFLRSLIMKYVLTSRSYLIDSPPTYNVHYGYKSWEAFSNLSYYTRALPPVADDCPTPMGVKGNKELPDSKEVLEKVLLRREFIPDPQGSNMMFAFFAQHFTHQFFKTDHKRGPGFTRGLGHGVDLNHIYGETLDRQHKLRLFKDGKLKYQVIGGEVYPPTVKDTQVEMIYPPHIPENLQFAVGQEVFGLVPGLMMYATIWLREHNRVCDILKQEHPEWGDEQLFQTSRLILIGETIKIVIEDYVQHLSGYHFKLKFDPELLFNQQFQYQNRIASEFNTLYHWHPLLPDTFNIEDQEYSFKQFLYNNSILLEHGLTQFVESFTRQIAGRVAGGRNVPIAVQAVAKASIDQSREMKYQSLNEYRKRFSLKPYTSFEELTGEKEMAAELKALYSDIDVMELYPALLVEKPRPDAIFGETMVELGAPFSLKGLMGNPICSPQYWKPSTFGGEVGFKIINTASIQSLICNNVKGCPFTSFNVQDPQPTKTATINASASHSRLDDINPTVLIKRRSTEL
Experiment: Assessment of COX-2 activity in LPS-stimulated J774 cells (PGE2 radioimmunoassay)
Format: cell-based, murine
Details: Table 8, Formula I-c; read-out: COX-2 IC50
Here, each record is paired with measured IC50 data.
Property Name: IC50 (µM)

CNC(=O)Cc1cc(-c2ccc(S(C)(=O)=O)cc2)n(-c2ccccc2)c1C
1
Cc1c(CC(=O)N(C)C)cc(-c2ccc(S(C)(=O)=O)cc2)n1-c1ccccc1
0.58
CCNC(=O)Cc1cc(-c2ccc(S(C)(=O)=O)cc2)n(-c2ccc(C(F)(F)F)cc2)c1C
0.19
CNC(=O)Cc1cc(-c2ccc(S(C)(=O)=O)cc2)n(-c2ccc(C(F)(F)F)cc2)c1C
0.09
